# Tested on: Streptococcus sp.
# procedureText: In vitro antibacterial evaluation: minimum inhibitory concentration (MIC), broth dilution method
# Type: cell-based
# testSettings: strain ATCC 6301
# Source text: […]
Catalogue of molecules with associated MIC Streptococcus pneumoniae (ATCC 6301)
Record the value in µg/mL, omitting the unit from your answer.

# annotated cases, reported MIC Streptococcus pneumoniae (ATCC 6301) shown
molecule | recordedMetric | measurement
CC(c1ccccc1)C1NC(=O)CNC(=O)C(CO)NC(=O)C(C(O)C2CN(CCCCCCCCCCC(=O)O)C(=N)N2C2OC(CO)C(O)C(O)C2O)NC(=O)C(C(O)C2CNC(=N)N2)NC(=O)C(Cc2ccc(OC3OC(CO)C(OC4OC(CO)C(O)C(O)C4O)C(O)C3O)cc2)NC1=O (stereo not shown) | MIC Streptococcus pneumoniae (ATCC 6301) | 64
COc1cc(C2OCC3OC(OC4C(CO)OC(Oc5ccc(CC6NC(=O)C(C(C)c7ccccc7)NC(=O)CNC(=O)C(CO)NC(=O)C(C(O)C7CNC(=N)N7C7OC(CO)C(O)C(O)C7O)NC(=O)C(C(O)C7CNC(=N)N7)NC6=O)cc5)C(O)C4O)C(O)C(O)C3O2)cc([N+](=O)[O-])c1O (stereo not shown) | MIC Streptococcus pneumoniae (ATCC 6301) | 8
CCOc1cc(C2OCC3OC(OC4C(CO)OC(Oc5ccc(CC6NC(=O)C(C(C)c7ccccc7)NC(=O)CNC(=O)C(CO)NC(=O)C(C(O)C7CNC(=N)N7C7OC(CO)C(O)C(O)C7O)NC(=O)C(C(O)C7CNC(=N)N7)NC6=O)cc5)C(O)C4O)C(O)C(O)C3O2)ccc1OC (stereo not shown) | MIC Streptococcus pneumoniae (ATCC 6301) | 2

Now examine the next entry.
State the recorded MIC Streptococcus pneumoniae (ATCC 6301) for this entry: CC(C)=CCCC(C)=CCN=C1NCC(C(O)C2NC(=O)C(C(O)C3CNC(=N)N3)NC(=O)C(Cc3ccc(OC4OC(CO)C(OC5OC6COC7(OC6C(O)C5O)C5CC6CC(C5)CC7C6)C(O)C4O)cc3)NC(=O)C(C(C)c3ccccc3)NC(=O)CNC(=O)C(CO)NC2=O)N1C1OC(CO)C(O)C(O)C1O (stereo not shown)
2

----------
# Test system: Staphylococcus sp.
# procedureText: In vitro antibacterial evaluation: minimum inhibitory concentration (MIC), broth dilution method
# Assay type: cell-based
# testSettings: broth dilution, 5×10^5 CFU/mL, 18 hours at 35° C.
recordedMetric: MIC Staphylococcus aureus (GC 4541) (µg/mL)
Give your result in µg/mL as a bare value.

molecule | recordedMetric | measurement
CC(c1ccccc1)C1NC(=O)CNC(=O)C(CO)NC(=O)C(C(O)C2CNC(=N)N2C2OC(CO)C(O)C(O)C2O)NC(=O)C(C(O)C2CNC(=N)N2)NC(=O)C(Cc2ccc(OC3OC(CO)C(OC4OC5COC(c6ccc7c(c6)OCCO7)OC5C(O)C4O)C(O)C3O)cc2)NC1=O (stereo not shown) [Example 149] | MIC Staphylococcus aureus (GC 4541) | 2
CC(c1ccccc1)C1NC(=O)CNC(=O)C(CO)NC(=O)C(C(O)C2CNC(=N)N2C2OC(CO)C(O)C(O)C2O)NC(=O)C(C(O)C2CNC(=N)N2)NC(=O)C(Cc2ccc(OC3OC(CO)C(OC4OC5COC(c6ccc(S(C)(=O)=O)cc6)OC5C(O)C4O)C(O)C3O)cc2)NC1=O (stereo not shown) [Example 157] | MIC Staphylococcus aureus (GC 4541) | 16
CCOc1cc(C2OCC3OC(OC4C(CO)OC(Oc5ccc(CC6NC(=O)C(C(C)c7ccccc7)NC(=O)CNC(=O)C(CO)NC(=O)C(C(O)C7CNC(=N)N7C7OC(CO)C(O)C(O)C7O)NC(=O)C(C(O)C7CNC(=N)N7)NC6=O)cc5)C(O)C4O)C(O)C(O)C3O2)ccc1[N+](=O)[O-] (stereo not shown) [Example 167] | MIC Staphylococcus aureus (GC 4541) | 8

Moving on to another molecule below.
May I ask what MIC Staphylococcus aureus (GC 4541) has been recorded for CC(c1ccccc1)C1NC(=O)CNC(=O)C(CO)NC(=O)C(C(O)C2CNC(=N)N2C2OC(CO)C(O)C(O)C2O)NC(=O)C(C(O)C2CNC(=N)N2)NC(=O)C(Cc2ccc(OC3OC(CO)C(OC4OC5COC(c6ccc(-c7ccc(Cl)cc7)cc6)OC5C(O)C4O)C(O)C3O)cc2)NC1=O (stereo not shown) [Example 178] ?
8

----------
# Test system: Staphylococcus sp.
# procedureText: In vitro antibacterial evaluation: minimum inhibitory concentration (MIC), broth dilution method
# Type: cell-based
# testSettings: strain GC 4542
MIC Staphylococcus aureus (GC 4542) by entry:
The reply should be a number in µg/mL, with the unit left off.

# example entries with known answers
molecule | MIC Staphylococcus aureus (GC 4542) [µg/mL]
CC(c1ccccc1)C1NC(=O)CNC(=O)C(CO)NC(=O)C(C(O)C2CNC(=N)N2C2OC(CO)C(O)C(O)C2O)NC(=O)C(C(O)C2CNC(=N)N2)NC(=O)C(Cc2ccc(OC3OC(CO)C(OC4OC5COC(CC6CCN(C(=O)OCc7ccccc7)CC6)OC5C(O)C4O)C(O)C3O)cc2)NC1=O (centres unmarked) | 1
CC(c1ccccc1)C1NC(=O)CNC(=O)C(CO)NC(=O)C(C(O)C2CNC(=N)N2C2OC(CO)C(O)C(O)C2O)NC(=O)C(C(O)C2CNC(=N)N2)NC(=O)C(Cc2ccc(OC3OC(CO)C(OC4OC5COC(c6cccs6)OC5C(O)C4O)C(O)C3O)cc2)NC1=O (centres unmarked) | 2
CC(c1ccccc1)C1NC(=O)CNC(=O)C(CO)NC(=O)C(C(O)C2CNC(=N)N2C2OC(CO)C(O)C(O)C2O)NC(=O)C(C(O)C2CNC(=N)N2)NC(=O)C(Cc2ccc(OC3OC(CO)C(OC4OC(COC(=O)OCc5ccccc5)C(O)C(O)C4O)C(O)C3O)cc2)NC1=O (centres unmarked) [Example 101a] | 4
CC(C)CC(=O)OC1C(O)C(OC2C(CO)OC(Oc3ccc(CC4NC(=O)C(C(C)c5ccccc5)NC(=O)CNC(=O)C(CO)NC(=O)C(C(O)C5CNC(=N)N5C5OC(CO)C(O)C(O)C5O)NC(=O)C(C(O)C5CNC(=N)N5)NC4=O)cc3)C(O)C2O)OC2COC3(OC21)C1CC2CC(C1)CC3C2 (centres unmarked) | 4
CC(c1ccccc1)C1NC(=O)CNC(=O)C(CO)NC(=O)C(C(O)C2CNC(=N)N2C2OC(CO)C(O)C(O)C2O)NC(=O)C(C(O)C2CNC(=N)N2)NC(=O)C(Cc2ccc(OC3OC(CO)C(OC4OC5COC(C)(c6ccc(F)cc6)OC5C(O)C4O)C(O)C3O)cc2)NC1=O (centres unmarked) | 1
COc1ccc(CC2OCC3OC(OC4C(CO)OC(Oc5ccc(CC6NC(=O)C(C(C)c7ccccc7)NC(=O)CNC(=O)C(CO)NC(=O)C(C(O)C7CNC(=N)N7C7OC(CO)C(O)C(O)C7O)NC(=O)C(C(O)C7CNC(=N)N7)NC6=O)cc5)C(O)C4O)C(O)C(O)C3O2)cc1 (centres unmarked) | 2

Requested read-out: MIC Staphylococcus aureus (GC 4542). Entry: CC(c1ccccc1)C1NC(=O)CNC(=O)C(CO)NC(=O)C(C(O)C2CNC(=N)N2C2OC(CO)C(O)C(O)C2O)NC(=O)C(C(O)C2CNC(=N)N2)NC(=O)C(Cc2ccc(OC3OC(CO)C(OC4OC5COC6(CCCCC6(C)C)OC5C(O)C4O)C(O)C3O)cc2)NC1=O (centres unmarked)
2

Please look up its MIC Staphylococcus aureus (GC 4542): CC(c1ccccc1)C1NC(=O)CNC(=O)C(CO)NC(=O)C(C(O)C2CNC(=N)N2C2OC(CO)C(O)C(O)C2O)NC(=O)C(C(O)C2CNC(=N)N2)NC(=O)C(Cc2ccc(OC3OC(CO)C(OC4OC5COC(c6ccc(C(=O)c7ccc(I)cc7)cc6)OC5C(O)C4O)C(O)C3O)cc2)NC1=O (centres unmarked)
1

Recorded MIC Staphylococcus aureus (GC 4542) for CC(c1ccccc1)C1NC(=O)CNC(=O)C(CO)NC(=O)C(C(O)C2CNC(=N)N2C2OC(CO)C(O)C(O)C2O)NC(=O)C(C(O)C2CNC(=N)N2)NC(=O)C(Cc2ccc(OC3OC(CO)C(OC4OC5COC(c6ccccc6)OC5C(O)C4O)C(O)C3O)cc2)NC1=O (centres unmarked) , please?
0.5

----------
Each item that follows carries a reported MIC Enterococcus faecium (GC 4557).
# Test system: Enterococcus sp.
# procedureText: In vitro antibacterial evaluation: minimum inhibitory concentration (MIC), broth dilution method
# Assay type: cell-based
# testSettings: broth dilution, inoculum 5×10^5 CFU/mL, 18 hours at 35° C.
Respond numerically; units are µg/mL and should not be typed.

molecule | measureUnit | MIC Enterococcus faecium (GC 4557)
CC(C)CC(=O)OC1C(O)C(OC2C(CO)OC(Oc3ccc(CC4NC(=O)C(C(C)c5ccccc5)NC(=O)CNC(=O)C(CO)NC(=O)C(C(O)C5CNC(=N)N5C5OC(CO)C(O)C(O)C5O)NC(=O)C(C(O)C5CNC(=N)N5)NC4=O)cc3)C(O)C2O)OC2COC3(OC21)C1CC2CC(C1)CC3C2 (stereo not shown) [Example 218] | µg/mL | 4
N=C1NCC(C(O)C2NC(=O)C(Cc3ccc(OC4OC(CO)C(OC5OC6COC(Cc7ccccc7)OC6C(O)C5O)C(O)C4O)cc3)NC(=O)C(CC3CCCCC3)NC(=O)CNC(=O)C(CO)NC(=O)C(C(O)C3CNC(=N)N3C3OC(CO)C(O)C(O)C3O)NC2=O)N1 (stereo not shown) [Example 200] | µg/mL | 2
CC(C)=CCN1CC(C(O)C2NC(=O)C(C(O)C3CNC(=N)N3)NC(=O)C(Cc3ccc(OC4OC(CO)C(OC5OC6COC7(OC6C(O)C5O)C5CC6CC(C5)CC7C6)C(O)C4O)cc3)NC(=O)C(C(C)c3ccccc3)NC(=O)CNC(=O)C(CO)NC2=O)N(C2OC(CO)C(O)C(O)C2O)C1=N (stereo not shown) [Example 225] | µg/mL | 1

Continue with the next molecule.
Recorded MIC Enterococcus faecium (GC 4557) of COc1ccc2cc(C3OCC4OC(OC5C(CO)OC(Oc6ccc(CC7NC(=O)C(C(C)c8ccccc8)NC(=O)CNC(=O)C(CO)NC(=O)C(CC8CNC(=N)N8C8OC(CO)C(O)C(O)C8O)NC(=O)C(CC8CNC(=N)N8)NC7=O)cc6)C(O)C5O)C(O)C(O)C4O3)ccc2c1 (stereo not shown) [Example 190] , please.
8
